tested on: Lipopolysaccharide (LPS); assay: Binding affinity to Escherichia coli O111:B4 lipopolysaccharide assessed as suppression of FTIC labeled LPS binding to mouse RAW264.7 cells at 20 ug/ml pretreated LPS with cells for 1 hr followed by compound addition measured after 1 hr by flow cytometer assay (reference value: 48.12%); assay type: cell-based; settings: dose 20.0 µg/ml
quantity name: Flu intensity (%)
Answers are plain numbers, in %.

These recorded examples may help you get a feel for the data.
| compound | unit spec | Flu intensity |
| --- | --- | --- |
| NCCNc1nc(NCCN)nc(N2CC(Cc3ccccc3)N(c3nc(NCCN)nc(NCCN)n3)CC2Cc2ccccc2)n1 (centres undefined) | % | 33.4 |
| NCCN(CCN)c1nc(NCc2ccccc2)nc(N2CC(Cc3ccccc3)N(c3nc(NCc4ccccc4)nc(N(CCN)CCN)n3)CC2Cc2ccccc2)n1 (centres undefined) | % | 16.4 |

// for each compound below, give its Flu intensity
1. N=C(N)NCCNc1nc(NCCNC(=N)N)nc(N2CC(Cc3ccccc3)N(c3nc(NCCNC(=N)N)nc(NCCNC(=N)N)n3)CC2Cc2ccccc2)n1 (centres undefined)
2. NCCCN(CCCN)c1nc(NCc2ccccc2)nc(N2CC(Cc3ccccc3)N(c3nc(NCc4ccccc4)nc(N(CCCN)CCCN)n3)CC2Cc2ccccc2)n1 (centres undefined)

40.6
27.4

====

system: Cell membrane; assay: Induction of inner membrane permeabilization in Escherichia coli ML-35 assessed as increase in […] at 2 times MIC by ONPG staining based analysis
Active and inactive are the calls of the source. The rule behind the calls is not given here.
quantity name: Activity

| compound | result |
| --- | --- |
| NCCNc1nc(NCCN)nc(N2CC(Cc3ccccc3)N(c3nc(NCCN)nc(NCCN)n3)CC2Cc2ccccc2)n1 (stereo not given) | inactive |
| NCCN(CCN)c1nc(NCc2ccccc2)nc(N2CC(Cc3ccccc3)N(c3nc(NCc4ccccc4)nc(N(CCN)CCN)n3)CC2Cc2ccccc2)n1 (stereo not given) | inactive |
| N=C(N)NCCNc1nc(NCCNC(=N)N)nc(N2CC(Cc3ccccc3)N(c3nc(NCCNC(=N)N)nc(NCCNC(=N)N)n3)CC2Cc2ccccc2)n1 (stereo not given) | inactive |
| NCCCCNc1nc(NCCCCN)nc(N2CC(Cc3ccccc3)N(c3nc(NCCCCN)nc(NCCCCN)n3)CC2Cc2ccccc2)n1 (stereo not given) | inactive |

What value of Activity has been reported for the following compound? NCCCN(CCCN)c1nc(NCc2ccccc2)nc(N2CC(Cc3ccccc3)N(c3nc(NCc4ccccc4)nc(N(CCCN)CCCN)n3)CC2Cc2ccccc2)n1 (stereo not given) inactive

====

test system: Pseudomonas aeruginosa; test: Synergistic antibacterial activity against multidrug-resistant Pseudomonas aeruginosa CCARM 2095 strain assessed as ciprofloxacin MIC by checkerboard assay; format: functional
quantity name: MIC (µg/mL)
One number for each entry, in µg/mL.

Some compounds with recorded MIC:
| compound | experimental target | measured number |
| --- | --- | --- |
| NCCNc1nc(NCCN)nc(N2CC(Cc3ccccc3)N(c3nc(NCCN)nc(NCCN)n3)CC2Cc2ccccc2)n1 (centres undefined) | Pseudomonas aeruginosa | 256 |
| NCCCN(CCCN)c1nc(NCc2ccccc2)nc(N2CC(Cc3ccccc3)N(c3nc(NCc4ccccc4)nc(N(CCCN)CCCN)n3)CC2Cc2ccccc2)n1 (centres undefined) | Pseudomonas aeruginosa | 64 |
| NCCN(CCN)c1nc(NCc2ccccc2)nc(N2CC(Cc3ccccc3)N(c3nc(NCc4ccccc4)nc(N(CCN)CCN)n3)CC2Cc2ccccc2)n1 (centres undefined) | Pseudomonas aeruginosa | 256 |

Which MIC is reported with Pseudomonas aeruginosa for this entry: NCCCCNc1nc(NCCCCN)nc(N2CC(Cc3ccccc3)N(c3nc(NCCCCN)nc(NCCCCN)n3)CC2Cc2ccccc2)n1 (centres undefined) ? 128

====

Please go through the items and note down their Flu intensity.
system: Lipopolysaccharide (LPS); test: Binding affinity to Escherichia coli O111:B4 lipopolysaccharide assessed as suppression of FTIC labeled LPS binding to mouse RAW264.7 cells at 20 ug/ml pretreated with LPS followed by compound addition by flow cytometer assay (reference value: 67.4%); format: cell-based; details: dose 20.0 µg/ml
Positions of bridges follow the written chain, without caps; N, C: chain ends. Non-standard residues stand in square brackets, D forms with d. Residues, ends and D or L forms follow the SMILES beside them. *: point of attachment. Heptanoyl(6-Me) = CC(C)CCCCC(=O)*; dDab = NCC[C@@H](N)C(=O)O; Dab = NCC[C@H](N)C(=O)O
Give bare numbers, in %.

| compound | measured number |
| --- | --- |
| N=C(N)NCCNc1nc(NCCNC(=N)N)nc(N2CC(Cc3ccccc3)N(c3nc(NCCNC(=N)N)nc(NCCNC(=N)N)n3)CC2Cc2ccccc2)n1 (stereo unspecified) | 21.1 |

Look up Flu intensity for the entries below, preserving their order.
1. NCCN(CCN)c1nc(NCc2ccccc2)nc(N2CC(Cc3ccccc3)N(c3nc(NCc4ccccc4)nc(N(CCN)CCN)n3)CC2Cc2ccccc2)n1 (stereo unspecified)
2. CC(C)CCCCC(=O)N[C@@H](CCN)C(=O)N[C@H](C(=O)N[C@@H](CCN)C(=O)N[C@H]1CCNC(=O)[C@H]([C@@H](C)O)NC(=O)[C@H](CCN)NC(=O)[C@H](CCN)NC(=O)[C@H](CC(C)C)NC(=O)[C@@H](Cc2ccccc2)NC(=O)[C@@H](CCN)NC1=O)[C@@H](C)O ({Heptanoyl(6-Me)}-[Dab]T[Dab][Dab][dDab][dF]L[Dab][Dab]T; lactam 4-C)
3. NCCCCNc1nc(NCCCCN)nc(N2CC(Cc3ccccc3)N(c3nc(NCCCCN)nc(NCCCCN)n3)CC2Cc2ccccc2)n1 (stereo unspecified)
4. NCCCN(CCCN)c1nc(NCc2ccccc2)nc(N2CC(Cc3ccccc3)N(c3nc(NCc4ccccc4)nc(N(CCCN)CCCN)n3)CC2Cc2ccccc2)n1 (stereo unspecified)

8
12.3
19.5
13.2

Need Flu intensity, item NCCNc1nc(NCCN)nc(N2CC(Cc3ccccc3)N(c3nc(NCCN)nc(NCCN)n3)CC2Cc2ccccc2)n1 (stereo unspecified) 21.4

====

test system: Lipopolysaccharide (LPS); assay: Displacement of BODIPY-TR-cadaverine from Escherichia coli O111:B4 lipopolysaccharide assessed as increase in fluorescence at 5 ug/ml by fluorescence based assay relative to control; details: dose 5.0 µg/ml
Exercise: state measured Activity for each of the molecules provided.

| molecule | experimental target | result |
| --- | --- | --- |
| NCCCCNc1nc(NCCCCN)nc(N2CC(Cc3ccccc3)N(c3nc(NCCCCN)nc(NCCCCN)n3)CC2Cc2ccccc2)n1 (centres undefined) | Lipopolysaccharide (LPS) | > 50% |
| N=C(N)NCCNc1nc(NCCNC(=N)N)nc(N2CC(Cc3ccccc3)N(c3nc(NCCNC(=N)N)nc(NCCNC(=N)N)n3)CC2Cc2ccccc2)n1 (centres undefined) | Lipopolysaccharide (LPS) | > 50% |
| NCCN(CCN)c1nc(NCc2ccccc2)nc(N2CC(Cc3ccccc3)N(c3nc(NCc4ccccc4)nc(N(CCN)CCN)n3)CC2Cc2ccccc2)n1 (centres undefined) | Lipopolysaccharide (LPS) | 75% |

Consider the additional molecule presented here.
What Activity value was documented for this molecule, NCCCN(CCCN)c1nc(NCc2ccccc2)nc(N2CC(Cc3ccccc3)N(c3nc(NCc4ccccc4)nc(N(CCCN)CCCN)n3)CC2Cc2ccccc2)n1 (centres undefined) ? > 50%

====

system: Pseudomonas aeruginosa; assay: Antibacterial activity against multidrug-resistant Pseudomonas aeruginosa CCARM 2109 strain assessed as bacterial growth inhibition measured at 18 to 24 hrs by microdilution assay; type: functional; conditions: time 18-24 hrs
Please provide measured MIC for the entries that follow.

Solved cases below.
| molecule | MIC |
| --- | --- |
| NCCCCNc1nc(NCCCCN)nc(N2CC(Cc3ccccc3)N(c3nc(NCCCCN)nc(NCCCCN)n3)CC2Cc2ccccc2)n1 (centres undefined) | 10.4 µM |
| N=C(N)NCCNc1nc(NCCNC(=N)N)nc(N2CC(Cc3ccccc3)N(c3nc(NCCNC(=N)N)nc(NCCNC(=N)N)n3)CC2Cc2ccccc2)n1 (centres undefined) | 19.4 µM |
| O=C(N[C@H](CO)[C@H](O)c1ccc([N+](=O)[O-])cc1)C(Cl)Cl [CHLORAMPHENICOL] | > 6330 µM |

Continue with the next molecule.
Endpoint output: MIC of NCCN(CCN)c1nc(NCc2ccccc2)nc(N2CC(Cc3ccccc3)N(c3nc(NCc4ccccc4)nc(N(CCN)CCN)n3)CC2Cc2ccccc2)n1 (centres undefined) . Value? 10.7 µM

====

What MHC was measured for each of the following?
tested on: Erythrocyte; experiment: Hemolytic activity in sheep RBC assessed as minimal hemolytic concentration causing 10% hemolysis incubated for 1 hr by ELISA; format: toxicity, cell-based, Ovis aries

Solved cases below.
| compound | MHC |
| --- | --- |
| NCCCCNc1nc(NCCCCN)nc(N2CCN(c3nc(NCCCCN)nc(NCCCCN)n3)C(Cc3ccccc3)C2)n1 (centres undefined) | > 376.3 µM |
| NCCCCNc1nc(NCCCCN)nc(N2CC(Cc3ccccc3)N(c3nc(NCCCCN)nc(NCCCCN)n3)CC2Cc2ccccc2)n1 (centres undefined) | > 332.8 µM |
| NCCCN(CCCN)c1nc(NCc2ccccc2)nc(N2CC(Cc3ccccc3)N(c3nc(NCc4ccc5ccccc5c4)nc(N(CCCN)CCCN)n3)CC2Cc2ccccc2)n1 (centres undefined) | 189.5 µM |

Now look at this one.
Would you kindly share the measured MHC for NCCNc1nc(NCCN)nc(N2CC(Cc3ccccc3)N(c3nc(NCCN)nc(NCCN)n3)CC2Cc2ccccc2)n1 (centres undefined) ? > 389.1 µM

Taken from ChEMBL document CHEMBL5331051.
